- System Under Test: Thyroid hormone receptor alpha (Homo sapiens, UniProt P10827)
- Sequence (P10827 whole entry): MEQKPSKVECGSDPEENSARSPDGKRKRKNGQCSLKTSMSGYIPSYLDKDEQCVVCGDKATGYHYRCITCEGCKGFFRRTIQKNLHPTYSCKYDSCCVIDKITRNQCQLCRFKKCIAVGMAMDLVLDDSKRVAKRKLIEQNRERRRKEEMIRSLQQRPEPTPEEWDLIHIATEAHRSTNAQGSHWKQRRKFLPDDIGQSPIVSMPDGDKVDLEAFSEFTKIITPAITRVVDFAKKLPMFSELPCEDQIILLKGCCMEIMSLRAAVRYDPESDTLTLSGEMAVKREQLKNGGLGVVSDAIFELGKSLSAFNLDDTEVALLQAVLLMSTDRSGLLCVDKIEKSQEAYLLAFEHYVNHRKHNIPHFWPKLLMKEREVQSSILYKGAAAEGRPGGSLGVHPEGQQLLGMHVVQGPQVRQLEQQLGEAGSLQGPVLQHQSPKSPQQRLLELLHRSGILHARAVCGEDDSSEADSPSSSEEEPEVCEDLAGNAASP
- Assay Overview: TRalpha-Binding Assay and Thyroid Response Element (TRAFalpha1) Reporter Assay.
- Assay Conditions: pH 7; 4 °C
Measured Quantity: EC50 (nM)
Respond numerically; units are nM and should not be typed.

Field EC50 (entry O=C(O)CCc1cc(Br)c(OCc2cccc(Br)c2)c(Br)c1 ) reads 380
